Source: the Immune Epitope Database (IEDB)

# study_system: HLA-B*27:03
# method: IEDB peptide-MHC binding, purified MHC/competitive/fluorescence; filed as Kd, often an IC50 or EC50 that approximates it; bounds were set here for any values at or beyond the usual limits of such assays
# condition_label: source organism: Entamoeba histolytica HM-1:IMSS
measured_property: Kd

Report Kd for "CLSPVVAGL" tested on HLA-B*27:03.
≥ 20 µM

###

# study_system: HLA-A*11:01
# method: IEDB peptide-MHC binding, purified MHC/direct/fluorescence; filed as Kd, often an IC50 or EC50 that approximates it; bounds were set here for any values at or beyond the usual limits of such assays
# condition_label: source organism: Marburg virus - Musoke, Kenya, 1980
measured_property: Kd

So what Kd did "SEINNLNLT" get with HLA-A*11:01?
≥ 20 µM

###

# study_system: HLA-B*08:01
# method: IEDB peptide-MHC binding, purified MHC/direct/fluorescence; filed as Kd, often an IC50 or EC50 that approximates it; bounds were set here for any values at or beyond the usual limits of such assays
# condition_label: source organism: Variola virus
pKd: −log10 of the molar value.
measured_property: pKd

Any idea what its pKd is? The sequence is "KELENEYYF"
≤ 4.70

###

# study_system: HLA-B*46:01
# method: IEDB peptide-MHC binding, purified MHC/competitive/fluorescence; filed as Kd, often an IC50 or EC50 that approximates it; bounds were set here for any values at or beyond the usual limits of such assays
# condition_label: source organism: Salmonella enterica subsp. enterica serovar Typhi
pKd: −log10 of the molar value.
measured_property: pKd

Any idea what its pKd is? The sequence is "KTVRYWHRF"
≤ 4.70

###

# study_system: HLA-B*46:01
# method: IEDB peptide-MHC binding, purified MHC/competitive/fluorescence; filed as Kd, often an IC50 or EC50 that approximates it; bounds were set here for any values at or beyond the usual limits of such assays
# condition_label: source organism: Coxiella burnetii 'MSU Goat Q177'
pKd: −log10 of the molar value.
measured_property: pKd

Query (sequence): "YYLIKYLHV" ; field requested: pKd
≤ 4.70

###

# study_system: HLA-A*68:01
# method: IEDB peptide-MHC binding, purified MHC/competitive/radioactivity; filed as Kd, often an IC50 or EC50 that approximates it; bounds were set here for any values at or beyond the usual limits of such assays
# condition_label: source organism: Vaccinia virus WR
measured_property: pKd
// field semantics: pKd = negative decimal log of concentration (mol/L)

Consider the sequence "GIGTFLHYK" and give its measured pKd.
7.62

Return reported pKd; argument: "YFSKQTQTY"
5.76

Which pKd is listed for "ALDEKWNEFK" ?
5.01

What does the data say about its pKd? Entry: "LSIVVDINK"
7.82

Tell me the measured pKd of "IASKINNNR" , please.
8.73

Given the entry "ILKINSVKYY" , report its measured pKd.
5.85

May I ask what pKd has been recorded for "ESRDRKWLYY" ?
4.97

###

# study_system: HLA-B*44:02
# method: IEDB peptide-MHC binding, purified MHC/competitive/radioactivity; filed as Kd, often an IC50 or EC50 that approximates it; bounds were set here for any values at or beyond the usual limits of such assays
# condition_label: source organism: Dengue virus 3 Martinique/1243/1999
measured_property: log10(Kd) (log10 of the value in nM)
In our notation, the value equals log10 of Kd in nM.

The examples below pair each entry with its known result.
HEEPVPMSTY : 2.03
IESQKNGSW : 2.66

Could you tell me which log10(Kd) is on file for "METLLLLGL" ?
0.95

So what does the record say about log10(Kd) for "NKAWMVHRQW" ?
4.10

Which measured log10(Kd) value corresponds to "TENILTVLL" ?
-0.39
